- Measurement target: CDK12 (Homo sapiens, UniProt Q9NYV4)
- Sequence (Q9NYV4 whole entry, species assumed): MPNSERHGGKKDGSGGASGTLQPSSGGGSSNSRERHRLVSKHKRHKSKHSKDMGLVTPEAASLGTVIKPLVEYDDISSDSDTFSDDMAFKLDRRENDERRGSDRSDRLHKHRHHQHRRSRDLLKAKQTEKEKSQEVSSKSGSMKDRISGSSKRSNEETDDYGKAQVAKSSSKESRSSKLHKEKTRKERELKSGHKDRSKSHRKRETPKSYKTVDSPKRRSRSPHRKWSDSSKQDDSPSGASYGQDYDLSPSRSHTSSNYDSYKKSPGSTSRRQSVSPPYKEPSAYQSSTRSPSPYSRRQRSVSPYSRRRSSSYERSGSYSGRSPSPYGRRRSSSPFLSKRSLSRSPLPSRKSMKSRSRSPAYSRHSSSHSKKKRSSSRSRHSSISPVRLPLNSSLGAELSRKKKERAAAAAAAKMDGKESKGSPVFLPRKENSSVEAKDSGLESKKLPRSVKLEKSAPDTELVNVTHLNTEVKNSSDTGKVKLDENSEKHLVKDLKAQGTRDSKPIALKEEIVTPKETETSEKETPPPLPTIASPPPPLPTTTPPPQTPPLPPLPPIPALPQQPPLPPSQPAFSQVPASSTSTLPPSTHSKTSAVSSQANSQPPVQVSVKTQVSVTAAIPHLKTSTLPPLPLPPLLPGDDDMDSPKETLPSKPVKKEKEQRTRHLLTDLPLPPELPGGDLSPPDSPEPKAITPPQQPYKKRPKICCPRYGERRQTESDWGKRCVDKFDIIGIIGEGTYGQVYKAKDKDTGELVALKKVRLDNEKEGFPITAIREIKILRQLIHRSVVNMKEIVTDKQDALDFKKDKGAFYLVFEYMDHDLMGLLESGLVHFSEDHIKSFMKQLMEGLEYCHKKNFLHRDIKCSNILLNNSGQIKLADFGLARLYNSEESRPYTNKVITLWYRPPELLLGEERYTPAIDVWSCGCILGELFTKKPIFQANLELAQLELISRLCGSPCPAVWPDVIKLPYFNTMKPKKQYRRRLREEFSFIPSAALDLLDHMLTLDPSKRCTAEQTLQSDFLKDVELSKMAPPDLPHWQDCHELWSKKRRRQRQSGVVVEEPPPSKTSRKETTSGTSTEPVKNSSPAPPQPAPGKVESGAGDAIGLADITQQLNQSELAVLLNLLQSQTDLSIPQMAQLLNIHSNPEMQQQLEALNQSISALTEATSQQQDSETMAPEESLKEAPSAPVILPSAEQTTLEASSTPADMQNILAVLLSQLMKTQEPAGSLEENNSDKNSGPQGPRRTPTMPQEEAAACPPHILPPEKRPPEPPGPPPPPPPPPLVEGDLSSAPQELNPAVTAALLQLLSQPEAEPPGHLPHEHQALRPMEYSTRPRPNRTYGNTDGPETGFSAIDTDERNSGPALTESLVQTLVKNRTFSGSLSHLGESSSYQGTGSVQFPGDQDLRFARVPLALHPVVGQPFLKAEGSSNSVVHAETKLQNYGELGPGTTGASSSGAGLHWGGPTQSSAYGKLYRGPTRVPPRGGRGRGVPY
- Sequence (O75909 whole entry partner, species assumed): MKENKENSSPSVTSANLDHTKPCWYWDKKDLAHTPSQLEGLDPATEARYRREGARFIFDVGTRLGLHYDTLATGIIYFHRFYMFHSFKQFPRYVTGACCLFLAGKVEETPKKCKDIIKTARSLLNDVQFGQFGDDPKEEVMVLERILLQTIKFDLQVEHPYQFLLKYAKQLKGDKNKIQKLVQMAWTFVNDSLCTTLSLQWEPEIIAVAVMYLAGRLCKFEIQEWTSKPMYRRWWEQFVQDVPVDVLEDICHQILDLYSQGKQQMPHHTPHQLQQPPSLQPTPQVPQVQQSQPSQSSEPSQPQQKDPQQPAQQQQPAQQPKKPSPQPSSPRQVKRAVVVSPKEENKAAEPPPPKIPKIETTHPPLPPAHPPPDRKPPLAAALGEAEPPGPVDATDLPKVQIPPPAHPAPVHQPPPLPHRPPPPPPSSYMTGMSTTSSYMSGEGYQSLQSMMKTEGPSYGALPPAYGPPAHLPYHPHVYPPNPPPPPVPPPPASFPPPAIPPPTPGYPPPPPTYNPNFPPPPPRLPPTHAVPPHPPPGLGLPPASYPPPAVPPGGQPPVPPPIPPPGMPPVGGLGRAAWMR
- Assay comment: Cellular CDK12 inhibitory activity assay (Ser2 phosphorylation of RNA polymerase II subunit B1 CTD in MDA-MB-231 cells)
- Type: cell-based
- Set-up: using MDA-MB-231 breast cancer cells; endogenous in cells; host or cells: MDA-MB-231
- Experimental: MDA-MB-231 cells were dispensed into a 96-well plate at 100 µL of cell suspension per well using L-15 (Invitrogen) medium containing 10 % FBS, followed by overnight incubation in a cell incubator at 37 °C and 0 % CO2. […] IC50 values were calculated by fitting a dose-response curve using a 4-parameter model of Prism (Graphpad) software.
Quantity name: IC50

Prompt line: Find IC50 (CDK12 (Homo sapiens, UniProt Q9NYV4)) for the entry Fc1ccc2nc(CNc3cc(N4CCOCC4)nn4c(I)cnc34)[nH]c2c1F
Response line: > 3 µM
